The measurements presented in this section are drawn from patent US10266560B2.

target: Human FXR (NR1H4) (Homo sapiens (Human), UniProt Q96RI1); assay: Human FXR (NR1H4) Assay (Gal4 promoter driven luciferase reporter transactivation in CHO cells); type: cell-based; conditions: CHO, read-out: Efficacy (%)
Sequence (Q96RI1 whole entry, the tested form may be a part): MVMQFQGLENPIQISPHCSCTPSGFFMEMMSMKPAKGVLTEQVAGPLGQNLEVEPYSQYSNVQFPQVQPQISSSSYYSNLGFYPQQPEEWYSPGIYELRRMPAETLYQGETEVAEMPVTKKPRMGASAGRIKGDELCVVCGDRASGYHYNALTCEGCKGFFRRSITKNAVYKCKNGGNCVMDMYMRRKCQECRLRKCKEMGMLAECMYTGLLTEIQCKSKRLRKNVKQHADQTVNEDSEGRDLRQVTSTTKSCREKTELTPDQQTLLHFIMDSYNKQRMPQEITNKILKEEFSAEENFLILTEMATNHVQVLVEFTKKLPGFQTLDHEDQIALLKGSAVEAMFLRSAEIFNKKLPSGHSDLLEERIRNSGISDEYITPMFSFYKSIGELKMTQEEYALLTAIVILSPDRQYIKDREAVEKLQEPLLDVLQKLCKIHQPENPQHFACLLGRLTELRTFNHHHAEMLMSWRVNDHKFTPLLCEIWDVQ
assay-metric: Emax (%)
Give just the numeric value; % need not be written.

Some solved entries appear below for comparison.
- compound: "CC[C@@H]1C2C[C@H](O)CCC2(C)[C@H]2CCC3(C)C([C@H](C)CCC(=O)NS(=O)(=O)c4ccc(C(C)(C)C)cc4)CC[C@H]3[C@@H]2[C@@H]1O (stereo partly shown)"
  tested-target: "Human FXR (NR1H4) (Homo sapiens (Human), UniProt Q96RI1)"
  Emax (%): 349
- compound: "CC[C@@H]1C2C[C@H](O)CCC2(C)[C@H]2CCC3(C)C([C@H](C)CCC(=O)NS(=O)(=O)c4cccc(OC)c4)CC[C@H]3[C@@H]2[C@@H]1O (stereo partly shown)"
  tested-target: "Human FXR (NR1H4) (Homo sapiens (Human), UniProt Q96RI1)"
  Emax (%): 596
- compound: "CC[C@H]1[C@@H](O)[C@@H]2[C@H](CC[C@]3(C)[C@@H]([C@H](C)C[C@@H](C)C(=O)NS(=O)(=O)c4ccc(OC(F)(F)F)cc4)CC[C@@H]23)[C@@]2(C)CC[C@@H](O)C[C@@H]12"
  tested-target: "Human FXR (NR1H4) (Homo sapiens (Human), UniProt Q96RI1)"
  Emax (%): 287
- compound: "CC[C@@H]1C2C[C@H](O)CCC2(C)[C@H]2CCC3(C)C([C@H](C)CCC(=O)NS(=O)(=O)c4cccc(C(F)(F)F)c4)CC[C@H]3[C@@H]2[C@@H]1O (stereo partly shown)"
  tested-target: "Human FXR (NR1H4) (Homo sapiens (Human), UniProt Q96RI1)"
  Emax (%): 291

Form: compound = CC[C@@H]1C2C[C@H](O)CCC2(C)[C@H]2CCC3(C)C([C@H](C)CCC(=O)NS(=O)(=O)c4cccc(F)c4)CC[C@H]3[C@@H]2[C@@H]1O (stereo partly shown) ; Emax = 415

Form: compound = CC[C@@H]1C2C[C@H](O)CCC2(C)[C@H]2CCC3(C)C([C@H](C)CCC(=O)NS(=O)(=O)c4ccc(OC)cc4)CC[C@H]3[C@@H]2[C@@H]1O (stereo partly shown) ; Emax = 417

Form: compound = CC[C@@H]1C2C[C@H](O)CCC2(C)[C@H]2CCC3(C)C([C@H](C)CCC(=O)NS(=O)(=O)c4cccc([N+](=O)[O-])c4)CC[C@H]3[C@@H]2[C@@H]1O (stereo partly shown) ; Emax = 292

Form: compound = CC[C@@H]1C2C[C@H](O)CCC2(C)[C@H]2CCC3(C)C([C@H](C)CCC(=O)NS(=O)(=O)c4ccc(Cl)cc4)CC[C@H]3[C@@H]2[C@@H]1O (stereo partly shown) ; Emax = 346

Form: compound = CC[C@@H]1C2C[C@H](O)CCC2(C)[C@H]2CCC3(C)C([C@H](C)CCC(=O)NS(=O)(=O)c4ccc5c(c4)OCO5)CC[C@H]3[C@@H]2[C@@H]1O (stereo partly shown) ; Emax = 359

Form: compound = CC[C@@H]1C2C[C@H](O)CCC2(C)[C@H]2CCC3(C)C([C@H](C)CCC(=O)NS(=O)(=O)c4ccc(OC)c(F)c4)CC[C@H]3[C@@H]2[C@@H]1O (stereo partly shown) ; Emax = 593
